meta.source: the supplement of paper PMC8728848

Provide the reported glycan array binding signal (z-score) of each item.
target: Man(a1-2)Man(a1-3)[Man(a1-6)]Man(a1-6)[Man(a1-2)Man(a1-3)]Man(b1-4)GlcNAc(b1-4)GlcNAc; assay: glycan array binding signal (z-score within array); higher = stronger binding; details: glycan notation: IUPAC condensed, linker removed
The full list was thinned out, with the strongest signals kept by preference.

Example binders with recorded glycan array binding signal (z-score):
Annotate the binder CBM32-5 (Clostridium perfringens) (protein) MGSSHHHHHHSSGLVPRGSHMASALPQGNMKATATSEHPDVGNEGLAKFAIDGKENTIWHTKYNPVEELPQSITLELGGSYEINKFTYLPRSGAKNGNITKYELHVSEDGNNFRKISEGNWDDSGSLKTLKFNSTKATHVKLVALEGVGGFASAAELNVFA with its measured glycan array binding signal (z-score).
-0.536

Annotate the binder RS-IIL (Ralstonia solanacearum) (protein) AQQGVFTLPANTSFGVTAFANAANTQTIQVLVDNVVKATFTGSGTSDKLLGSQVLNSGSGAIKIQVSVNGKPSDLVSNQTILANKLNFAMVGSEDGTDNDYNDGIAVLNWPLG with its measured glycan array binding signal (z-score).
4.71

Annotate the binder SSR2 (Sclerotium rolfsii) (protein) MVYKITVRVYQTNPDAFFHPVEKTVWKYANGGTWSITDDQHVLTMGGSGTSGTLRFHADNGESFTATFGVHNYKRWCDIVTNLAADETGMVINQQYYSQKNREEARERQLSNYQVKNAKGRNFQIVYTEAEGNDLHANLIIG with its measured glycan array binding signal (z-score).
-0.276

Annotate the binder Pbx2CASH domain (Cryptococcus neoformans) (protein) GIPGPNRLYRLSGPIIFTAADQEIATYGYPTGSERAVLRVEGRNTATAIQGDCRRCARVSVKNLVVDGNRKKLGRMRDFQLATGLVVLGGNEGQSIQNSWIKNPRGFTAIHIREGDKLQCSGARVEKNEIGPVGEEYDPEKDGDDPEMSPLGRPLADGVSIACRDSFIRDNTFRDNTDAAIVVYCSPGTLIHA with its measured glycan array binding signal (z-score).
-0.457

Annotate the binder HA-00510 (Pseudomonas aeruginosa), Q02V39_PSEAB (protein) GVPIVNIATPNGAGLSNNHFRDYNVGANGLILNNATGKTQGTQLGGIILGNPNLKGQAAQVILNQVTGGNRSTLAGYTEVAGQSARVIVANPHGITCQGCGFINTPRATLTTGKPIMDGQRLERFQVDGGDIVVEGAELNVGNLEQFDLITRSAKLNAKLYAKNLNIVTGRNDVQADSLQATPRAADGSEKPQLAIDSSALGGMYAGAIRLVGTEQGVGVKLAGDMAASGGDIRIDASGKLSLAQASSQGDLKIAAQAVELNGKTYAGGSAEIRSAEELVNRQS with its measured glycan array binding signal (z-score).
-0.534

Now examine the next entry.
Annotate the binder Gz-CVNH (Gibberella zeae) (protein) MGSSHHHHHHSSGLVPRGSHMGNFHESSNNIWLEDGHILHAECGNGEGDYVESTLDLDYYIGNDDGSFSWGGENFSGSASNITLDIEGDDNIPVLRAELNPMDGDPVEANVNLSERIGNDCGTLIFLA with its measured glycan array binding signal (z-score).
5.4
